Below is a list of entries, each paired with its recorded growth value.
- System: MDA-MB-231 breast
- ASSAY_OVERVIEW: NCI-60 one-dose screen, 48 h (100 = growth as untreated, 0 = no growth, -100 = all killed)
- APPLIED_CONDITIONS: 10 µM unless noted
This is part of a sample that, as a whole, favours compounds with a hit. Of some 83,000 tested, about 20% had one in any assay.
Note: unit % is implicit; provide only the numeric part.

COMPOUND	growth / %
COc1ccc(C2(SCCNCc3cc(N(C)C)ccn3)c3ccccc3C=Cc3ccccc32)cc1	-29.2

Task: Record lookup: for MDA-MB-231 breast, what growth belongs to CCCCSc1nc(Nc2ccc(S(N)(=O)=O)cc2)c(C#N)c(-c2cc(OC)c(OC)c(OC)c2)n1 ?
Output: 42.5

Task: Record lookup: for MDA-MB-231 breast, what growth belongs to COc1ccc(NC(=O)[C@@H](N)Cc2ccccc2)cc1C(=O)Nc1cccc(C2CC(=O)c3c(cc(OC)c(OC)c3OC)O2)c1 (some centres undefined) ?
Output: 63

Task: Record lookup: for MDA-MB-231 breast, what growth belongs to C[C@H]1CN(C(=O)c2ccc3c(NNC(=O)c4ccncn4)nc4cc(F)c(F)cc4n23)CCN1 ?
Output: 45.7
